test system: Phakopsora pachyrhizi (F129L); experiment: Protective control of soybean rust on soybeans (PHAKPA P2); type: in vivo; conditions: protective P2, 16 ppm, soybean rust F129L isolate
Please provide measured % PHAKPA (F129L) Disease level P2 at 16 ppm for the entries that follow.
Numbers only, in %.

Count: 7. Required value per item: % PHAKPA (F129L) Disease level P2 at 16 ppm.
1. CO/N=C(/C(=O)OC)c1cccc(C)c1CO/N=C(\CC(F)(F)F)c1cccc(C(F)(F)F)c1
2. CNC(=O)/C(=N/OC)c1cccc(C)c1CO/N=C(\C)c1ccccc1CC(F)(F)F
3. CNC(=O)/C(=N/OC)c1cccc(C)c1CO/N=C(\C)c1ccccc1OC(C)C
4. CNC(=O)/C(=N/OC)c1cccc(C)c1CO/N=C(\C)c1ccc(F)cc1F
5. CNC(=O)/C(=C/OC)c1cccc(C)c1CO/N=C(\C)c1cccc(C(F)(F)F)c1
6. CNC(=O)/C(=N/OC)c1cccc(C)c1CO/N=C(\C)c1cccc(F)c1C(F)(F)F
7. CO/N=C(/C(=O)OC)c1cccc(C)c1CO/N=C(\C)c1ccccc1C#N

Result:
1: 90; 2: 0; 3: 60; 4: 0; 5: 73; 6: 0; 7: 100

Task: Which % PHAKPA (F129L) Disease level P2 at 16 ppm is reported with Phakopsora pachyrhizi (F129L) for this entry: CNC(=O)/C(=N/OC)c1cccc(C)c1CO/N=C(\C)c1ccccc1C(F)F ?
Result: 7

* * *

test system: Phakopsora pachyrhizi (F129L); assay: Protective control of soybean rust on soybeans (PHAKPA P6); format: in vivo; conditions: protective P6, 4 ppm, F129L isolate
The following ranges of % PHAKPA (F129L) Disease level P6 at 4 ppm define the classes used here: bin A: < 30%; bin B: ≥ 30% and < 70%; bin C: ≥ 70%

Would you please look over these solved cases?
CNC(=O)/C(=N/OC)c1cccc(C)c1CO/N=C(\C)c1ccc(-c2ccccc2)cc1C(F)(F)F [compound 413] = bin B
CO/C=C(/C(=O)OC)c1cccc(C)c1CO/N=C(\C)c1ccc(Cl)c(Cl)c1C(F)(F)F [compound 430] = bin B
CO/N=C(/C(=O)OC)c1cccc(C)c1CO/N=C(\C)c1ccc(-c2ccc(F)cc2)cc1C(F)(F)F [compound 425] = bin B

Task: State the class of the molecule shown: CNC(=O)/C(=N/OC)c1cccc(C)c1CO/N=C(\C)c1ccc(Cl)c(Cl)c1C(F)(F)F [compound 431]
Result: bin B

Task: Returns: class label. Input: CO/N=C(/C(=O)OC)c1cccc(C)c1CO/N=C(\C)c1ccc(Cc2ccccc2)cc1C(F)(F)F [compound 408]
Result: bin B

Task: Hey, which category is CO/N=C(/C(=O)OC)c1cccc(C)c1CO/N=C(\C)c1ccc(Cl)c(Cl)c1C(F)(F)F [compound 429] in, do you know?
Result: bin B

Task: Field: class (% PHAKPA (F129L) Disease level P6 at 4 ppm) — entry: CNC(=O)/C(=N/OC)c1cccc(C)c1CO/N=C(\C)c1c(Cl)ccc(Cl)c1OC(F)(F)F [compound 441]
Result: bin C

* * *

test system: Phakopsora pachyrhizi (F129L); experiment: Protective control of soybean rust on soybeans (PHAKPA P2); assay type: in vivo; conditions: protective P2, 16 ppm, soybean rust F129L isolate
Our labelling divides records by % PHAKPA (F129L) Disease level P2 at 16 ppm into ranges: lowest (below 4%), middle (4% to below 30%), highest (30% or more)

Completed entries (count: 5):
CNC(=O)/C(=N/OC)c1cccc(C)c1CO/N=C(\C)c1ccccc1C(C)(F)F = middle
CC/C(=N\OCc1c(C)cccc1/C(=N\OC)C(=O)NC)c1ccccc1 = lowest
CNC(=O)/C(=N/OC)c1cccc(C)c1CO/N=C(\C)c1cc(Cl)ccc1C(F)(F)F = middle
CNC(=O)/C(=N/OC)c1cccc(C)c1CO/N=C(\C)c1ccccc1C#N = middle
CNC(=O)/C(=N/OC)c1cccc(C)c1CO/N=C(\C)c1c(F)ccc(F)c1C(F)(F)F = highest

Task: For CNC(=O)/C(=N/OC)c1cccc(C)c1CO/N=C(\C)c1cccc(F)c1OC(F)(F)F , which % PHAKPA (F129L) Disease level P2 at 16 ppm bin applies?
Result: lowest

Task: State the class of the compound shown: CO/N=C(/C(=O)OC)c1cccc(C)c1CO/N=C(\C)c1cc(F)ccc1C(F)(F)F
Result: highest

Task: Kindly identify the class of CO/C=C(/C(=O)OC)c1cccc(C)c1CO/N=C(\C)c1ccccc1C(F)(F)F .
Result: lowest

Task: Entry CNC(=O)/C(=N/OC)c1cccc(C)c1CO/N=C(\C)c1cc(C(F)(F)F)ccc1C(F)(F)F belongs to which category?
Result: middle

Task: Consider CO/N=C(/C(=O)OC)c1cccc(C)c1CO/N=C(\C)c1ccc(Oc2ccc(Cl)cc2)cc1C(F)(F)F . To which % PHAKPA (F129L) Disease level P2 at 16 ppm class does it belong?
Result: highest

Task: Sort into band: CNC(=O)/C(=N/OC)c1cccc(C)c1CO/N=C(\C)c1ccc(OC(F)(F)F)cc1Cl
Result: lowest

Task: # bin lookup: classify CO/N=C(/C(=O)OC)c1cccc(C)c1CO/N=C(\C)c1ccccc1OC(F)(F)F by its % PHAKPA (F129L) Disease level P2 at 16 ppm
Result: highest

Task: Please report the category associated with CNC(=O)/C(=N/OC)c1cccc(C)c1CO/N=C(\C)c1ccc(OC)cc1C(F)(F)F , nothing else.
Result: lowest

* * *

test system: Phakopsora pachyrhizi (F129L); assay: Protective control of soybean rust on soybeans (PHAKPA P2); format: in vivo; conditions: protective P2, 16 ppm, soybean rust F129L isolate
Binarize % PHAKPA (F129L) Disease level P2 at 16 ppm at 7%; below is True, at or above is False.

Worked examples follow.
CO/N=C(/C(=O)OC)c1cccc(C)c1CO/N=C(\C)c1cc(F)ccc1Br [compound 254] = False
CNC(=O)/C(=N/OC)c1cccc(C)c1CO/N=C(\C)c1ccccc1OC1CC1 [compound 329] = False

In the following, a different compound is considered.
Task: Below 7% on % PHAKPA (F129L) Disease level P2 at 16 ppm? Entry CNC(=O)/C(=N/OC)c1cccc(C)c1CO/N=C(\C)c1ccc(C)c(C(F)(F)F)c1 [compound 230]
Result: True

* * *

test system: Phakopsora pachyrhizi (F129L); experiment: Protective control of soybean rust on soybeans (PHAKPA P2); assay type: in vivo; settings: protective P2, 16 ppm, F129L isolate
Provide the recorded % PHAKPA (F129L) Disease level P2 at 16 ppm for the entries that follow.
Numbers only, in %.

Recorded results for 5 compounds are shown here.
CO/N=C(/C(=O)OC)c1cccc(C)c1CO/N=C(\C)c1ccc(-c2ccc(F)cc2)cc1C(F)(F)F = 28
C=C(C)c1cccc(/C(=N\OC)C(=O)NC)c1CO/N=C(\C)c1ccccc1 = 8
CNC(=O)/C(=N/OC)c1cccc(C)c1CO/N=C(\C)c1ccc(-c2ccccc2)cc1C(F)(F)F = 15
CNC(=O)/C(=N/OC)c1cccc(C)c1CO/N=C(\C)c1c(Cl)ccc(F)c1OC(F)(F)F = 23
C#Cc1cccc(/C(C)=N/OCc2c(C)cccc2/C(=N\OC)C(=O)NC)c1F = 5

# map each compound to its % PHAKPA (F129L) Disease level P2 at 16 ppm
1. CCC/C(=N\OCc1c(C)cccc1/C(=N\OC)C(=O)OC)c1ccccc1
2. CO/N=C(/C)c1ccc(/C(C)=N/OCc2c(C)cccc2/C(=N\OC)C(=O)OC)c(OC(F)(F)F)c1
3. CNC(=O)/C(=N/OC)c1cccc(Br)c1CO/N=C(\C)c1ccccc1
4. CO/C=C(/C(=O)OC)c1cccc(C)c1CO/N=C(\C)c1c(F)cccc1C(F)(F)F
5. CO/C=C(/C(=O)OC)c1cccc(C)c1CO/N=C(\C)c1cc(F)c(F)cc1CC(F)(F)F

Result:
30
33
0
0
27

Hi, could you look up % PHAKPA (F129L) Disease level P2 at 16 ppm for each item in my list?
1. CNC(=O)/C(=N/OC)c1cccc(C)c1CO/N=C(\C)c1ccc(Cc2ccccc2)cc1OC(F)(F)F
2. CNC(=O)/C(=N/OC)c1cccc(C)c1CO/N=C(\CC(F)(F)F)c1ccccc1C
3. CO/N=C(/C(=O)OC)c1cccc(C)c1CO/N=C(\C)c1ccc(C#N)cc1C(F)(F)F
4. CNC(=O)/C(=N/OC)c1cccc(C)c1CO/N=C(\C)c1ccc(Cc2ccccc2)cc1C(F)(F)F

Result:
[18, 55, 57, 6]

Can you give me % PHAKPA (F129L) Disease level P2 at 16 ppm for all of these, one by one?
1. CO/C=C(/C(=O)OC)c1cccc(C)c1CO/N=C(\C)c1ccc(Br)cc1C(F)(F)F
2. CO/N=C(/C(=O)OC)c1cccc(C)c1CO/N=C(\C)c1ccc(F)c(F)c1OC(F)(F)F
3. CNC(=O)/C(=N/OC)c1cccc(C)c1CO/N=C(\C)c1ccc(Cl)c(F)c1OC(F)(F)F
4. CO/C=C(/C(=O)OC)c1cccc(C)c1CO/N=C(\C)c1c(Cl)ccc(Cl)c1OC(F)(F)F
5. CO/N=C(/C(=O)OC)c1cccc(C)c1CO/N=C(\C)c1cccc(Cl)c1C(F)(F)F

Result:
1. 1
2. 0
3. 10
4. 47
5. 33

Please give % PHAKPA (F129L) Disease level P2 at 16 ppm for each item listed below.
1. CO/N=C(/C(=O)OC)c1cccc(C)c1CO/N=C(\C)c1cc(F)c(F)cc1C(F)(F)F
2. CNC(=O)/C(=N/OC)c1cccc(C)c1CO/N=C(\C)c1ccc(F)cc1CC(F)(F)F
3. CCC/C(=N\OCc1c(C)cccc1/C(=N\OC)C(=O)NC)c1ccccc1
4. CNC(=O)/C(=N/OC)c1cccc(C)c1CO/N=C(\C)c1c(Cl)ccc(Cl)c1OC(F)(F)F

Result:
1. 40
2. 3
3. 0
4. 43

// provenance: patent US20230172206A1
